Target: AXL (phospho-AXL, Gas6-stimulated A-172 glioblastoma cells) (Homo sapiens (Human), UniProt P30530)
Sequence (P30530 26-894): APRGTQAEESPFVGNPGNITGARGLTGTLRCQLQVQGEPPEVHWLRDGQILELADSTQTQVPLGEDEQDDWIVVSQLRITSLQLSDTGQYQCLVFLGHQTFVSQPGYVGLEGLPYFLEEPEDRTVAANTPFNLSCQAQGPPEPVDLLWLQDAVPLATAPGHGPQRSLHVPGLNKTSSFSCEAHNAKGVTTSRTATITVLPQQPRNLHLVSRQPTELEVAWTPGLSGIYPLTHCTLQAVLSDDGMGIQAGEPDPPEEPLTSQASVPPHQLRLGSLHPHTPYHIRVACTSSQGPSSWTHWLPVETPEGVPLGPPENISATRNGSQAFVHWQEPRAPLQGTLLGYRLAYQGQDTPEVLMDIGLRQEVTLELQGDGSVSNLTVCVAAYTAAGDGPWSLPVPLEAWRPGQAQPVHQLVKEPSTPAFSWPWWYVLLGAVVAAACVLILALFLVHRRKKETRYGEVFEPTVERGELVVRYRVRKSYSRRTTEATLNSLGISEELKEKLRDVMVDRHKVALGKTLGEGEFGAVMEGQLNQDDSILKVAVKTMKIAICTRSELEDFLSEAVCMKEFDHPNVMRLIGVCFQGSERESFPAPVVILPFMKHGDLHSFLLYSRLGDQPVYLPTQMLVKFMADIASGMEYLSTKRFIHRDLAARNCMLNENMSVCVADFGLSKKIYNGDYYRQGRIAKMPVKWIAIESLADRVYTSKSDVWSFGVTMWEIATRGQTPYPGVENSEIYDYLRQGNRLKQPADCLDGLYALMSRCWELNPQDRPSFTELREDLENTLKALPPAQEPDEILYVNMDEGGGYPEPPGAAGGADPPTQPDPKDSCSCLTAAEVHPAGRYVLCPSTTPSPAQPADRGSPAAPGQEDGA
Test: AXL autophosphorylation ELISA in A-172 cells (Example E)
Assay type: cell-based
Settings: cellular activity; AXL autophosphorylation ELISA in A-172 cells; read-out: Axl IC50
Method: A-172 cells were incubated at 37° C., 5% CO2 for 24 h and then starved for 24 h in serum-free medium. Test compounds were serially diluted to produce an 8-point dose curve in fresh serum-free medium to a final concentration of 0.3% DMSO (vehicle) and added to the cells and incubated for 1 h. […] IC50 values were calculated by nonlinear regression analysis using a 4-parameter logistic curve fit in ActivityBase XE (IDBS).
RESULT TYPE: IC50

Worked cases, answers included:
{"columns": ["COMPOUND", "IC50"],
 "data": [
  ["COc1cc2nccc(Oc3ccc(NC(=O)c4nnc(C)c(-c5ccc(F)cc5)c4OC)cc3)c2nc1OC", "< 0.1 µM"],
  ["Cc1cc(C)n(-c2ccc(F)cc2)c(=O)c1C(=O)Nc1ccc(Oc2ccnc3cc(C(C)CO)cnc23)c(F)c1 (stereo not shown)", "< 0.1 µM"],
  ["C=C(C)c1cnc2c(Oc3ccc(NC(=O)c4c(C)nc(C)n(-c5ccc(F)cc5)c4=O)cc3)ccnc2c1", "< 0.1 µM"]
]}

Let us examine a further case.
I'd like to know its IC50. The compound in question is `COc1cnc2c(Oc3ccc(NC(=O)c4c(C)nc(C)c(-c5ccc(F)c(C)c5)c4O)cc3F)ccnc2c1`
< 0.1 µM

---

molecular target: Mer (phospho-Mer, MERTK-transfected 293A cells) (Homo sapiens (Human)); test: Mer autophosphorylation ELISA in transient transfected 293A cells (Example H); format: cell-based; conditions: cellular activity; Mer autophosphorylation ELISA in transient transfected 293A cells
Sequence (Q12866 21-999): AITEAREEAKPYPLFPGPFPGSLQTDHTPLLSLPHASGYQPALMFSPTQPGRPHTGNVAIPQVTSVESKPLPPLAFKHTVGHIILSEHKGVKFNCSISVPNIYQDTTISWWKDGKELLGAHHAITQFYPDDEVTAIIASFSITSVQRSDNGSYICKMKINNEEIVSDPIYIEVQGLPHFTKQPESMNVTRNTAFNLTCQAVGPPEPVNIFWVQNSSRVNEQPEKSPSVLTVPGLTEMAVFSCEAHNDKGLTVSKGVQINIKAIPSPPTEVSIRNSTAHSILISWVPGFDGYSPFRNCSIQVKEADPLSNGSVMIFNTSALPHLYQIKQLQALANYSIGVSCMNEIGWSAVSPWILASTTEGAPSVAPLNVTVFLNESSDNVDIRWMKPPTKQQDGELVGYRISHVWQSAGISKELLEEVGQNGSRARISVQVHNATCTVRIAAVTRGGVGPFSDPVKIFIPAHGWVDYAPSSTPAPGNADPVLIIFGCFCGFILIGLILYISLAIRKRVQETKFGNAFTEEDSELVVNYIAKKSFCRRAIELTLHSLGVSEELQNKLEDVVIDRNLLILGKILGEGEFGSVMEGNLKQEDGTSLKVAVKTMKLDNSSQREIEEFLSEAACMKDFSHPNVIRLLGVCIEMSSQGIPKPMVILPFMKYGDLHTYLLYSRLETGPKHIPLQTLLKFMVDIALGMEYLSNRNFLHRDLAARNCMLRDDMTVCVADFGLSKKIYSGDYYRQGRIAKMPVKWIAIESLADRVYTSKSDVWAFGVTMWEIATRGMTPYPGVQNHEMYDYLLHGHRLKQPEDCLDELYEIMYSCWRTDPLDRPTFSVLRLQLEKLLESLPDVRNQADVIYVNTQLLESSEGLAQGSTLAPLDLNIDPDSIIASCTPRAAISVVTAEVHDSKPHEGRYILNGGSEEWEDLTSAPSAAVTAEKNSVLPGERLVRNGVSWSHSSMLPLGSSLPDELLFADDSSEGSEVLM
RESULT TYPE: IC50

{"columns": ["SMILES INPUT", "EXPERIMENTAL SYSTEM", "IC50"],
 "data": [
  ["Cc1ncc(C(=O)Nc2ccc(Oc3ccnc4cc(Br)cnc34)c(F)c2)c(O)c1-c1ccc(F)cc1", "Mer (phospho-Mer, MERTK-transfected 293A cells) (Homo sapiens (Human))", "0.1 to 0.3 µM"]
]}

I'd like to know its IC50. The molecule in question is `Cc1nc(C)c(-c2ccc(F)cc2)c(O)c1C(=O)Nc1ccc(Oc2ccnc3cc(OCc4ccccc4)cnc23)c(F)c1`
< 0.1 µM

I'd like to know its IC50. The molecule in question is `COc1cc2nccc(Oc3ccc(NC(=O)c4cnc(C)c(-c5ccc(F)cc5C)c4O)cc3F)c2nc1OCCCN1CCOCC1`
< 0.1 µM

I'd like to know its IC50. The molecule in question is `Cc1ncc(C(=O)Nc2ccc(Oc3ccnc4cc(Br)cnc34)cc2)c(O)c1-c1ccc(F)cc1`
< 0.1 µM

---

Biological target: KDR (phospho-KDR, VEGF165-stimulated HUVEC cells) (Homo sapiens (Human), UniProt P35968)
Sequence (P35968 20-1356): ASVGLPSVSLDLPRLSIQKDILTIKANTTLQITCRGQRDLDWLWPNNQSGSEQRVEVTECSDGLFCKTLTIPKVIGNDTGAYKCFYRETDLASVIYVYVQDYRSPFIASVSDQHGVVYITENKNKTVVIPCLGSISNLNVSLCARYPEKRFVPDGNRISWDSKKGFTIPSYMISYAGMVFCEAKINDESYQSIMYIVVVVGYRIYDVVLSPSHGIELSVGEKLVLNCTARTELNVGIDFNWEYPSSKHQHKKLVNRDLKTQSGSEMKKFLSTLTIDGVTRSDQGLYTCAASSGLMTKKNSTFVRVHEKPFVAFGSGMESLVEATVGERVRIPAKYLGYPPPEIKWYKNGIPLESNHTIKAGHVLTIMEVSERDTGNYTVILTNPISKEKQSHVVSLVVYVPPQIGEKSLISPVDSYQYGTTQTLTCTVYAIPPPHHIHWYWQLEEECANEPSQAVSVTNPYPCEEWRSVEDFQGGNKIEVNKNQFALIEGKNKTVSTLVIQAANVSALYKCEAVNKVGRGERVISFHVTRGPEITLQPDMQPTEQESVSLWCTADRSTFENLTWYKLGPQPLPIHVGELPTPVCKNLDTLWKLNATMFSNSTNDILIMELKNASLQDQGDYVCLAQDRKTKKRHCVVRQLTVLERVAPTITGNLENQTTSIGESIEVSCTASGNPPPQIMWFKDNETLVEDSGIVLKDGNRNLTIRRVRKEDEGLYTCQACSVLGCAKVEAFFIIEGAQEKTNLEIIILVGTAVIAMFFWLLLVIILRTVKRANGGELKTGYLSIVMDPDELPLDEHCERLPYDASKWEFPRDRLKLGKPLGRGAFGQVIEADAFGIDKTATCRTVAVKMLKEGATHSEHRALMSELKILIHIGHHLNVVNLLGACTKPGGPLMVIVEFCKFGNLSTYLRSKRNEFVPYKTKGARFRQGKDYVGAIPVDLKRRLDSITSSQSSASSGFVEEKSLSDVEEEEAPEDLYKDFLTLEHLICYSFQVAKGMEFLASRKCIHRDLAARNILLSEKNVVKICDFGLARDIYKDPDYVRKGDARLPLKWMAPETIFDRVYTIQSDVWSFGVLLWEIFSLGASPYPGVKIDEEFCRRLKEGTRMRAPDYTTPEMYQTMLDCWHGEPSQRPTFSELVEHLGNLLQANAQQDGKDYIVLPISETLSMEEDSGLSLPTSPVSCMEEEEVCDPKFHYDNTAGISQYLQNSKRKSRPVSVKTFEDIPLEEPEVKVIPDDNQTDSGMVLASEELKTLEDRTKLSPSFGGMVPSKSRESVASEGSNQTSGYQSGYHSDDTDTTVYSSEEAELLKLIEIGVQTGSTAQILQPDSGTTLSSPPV
Experiment: KDR autophosphorylation ELISA in HUVEC cells (Example G)
Type: cell-based
Conditions: cellular activity; KDR autophosphorylation ELISA in HUVEC cells
Procedure: Human umbilical vein endothelial cells or HUVEC (Lonza #C2519A) were seeded at 2×10^4 cells/well onto 96-well plates (Corning #3904), in EGM-2 growth medium (Lonza #CC-3162) containing 1% Penicillin Streptomycin (Thermo Fisher #15140-122). […] IC50 values were calculated by nonlinear regression analysis using a 4-parameter logistic curve fit in ActivityBase XE (IDBS).
Where a name gives a salt, the structure may show the parent alone.
RESULT TYPE: IC50

Worked cases, answers included:
{"columns": ["MOLECULE", "IC50"],
 "data": [
  ["COc1cc2nccc(Oc3ccc(NC(=O)c4cnc(C)c(-c5ccc(F)cc5)c4O)cc3F)c2nc1Br", "< 0.1 µM"],
  ["COc1cnc2c(Oc3ccc(NC(=O)c4c(C)ccn(-c5ccc(F)cc5C)c4=O)cc3F)ccnc2c1", "< 0.1 µM"],
  ["Cc1nc2c(Oc3ccc(NC(=O)c4cn(C(C)C)c(C)c(-c5ccc(F)cc5)c4=O)cc3F)ccnc2cc1-c1cnn(C(F)F)c1 [Compound 614, hydrochloride]", "> 0.3 µM"],
  ["COc1cnc2c(Oc3cc(F)c(NC(=O)c4c(C)nc(C)c(-c5ccc(F)cc5F)c4O)cc3F)ccnc2c1", "< 0.1 µM"],
  ["C=C(C)c1cnc2c(Oc3ccc(NC(=O)c4nn(CC)c(C)c(-c5ccc(F)cc5)c4=O)cc3F)ccnc2c1", "< 0.1 µM"],
  ["COc1cnc2c(Oc3ccc(NC(=O)c4cn(C)c(Cl)c(-c5ccc(F)cc5)c4=O)cc3F)ccnc2c1", "> 0.3 µM"]
]}

I'd like to know its IC50. The molecule in question is `COc1cnc2c(Oc3ccc(NC(=O)c4nn(C)c(C)c(-c5ccc(F)cc5C)c4=O)cc3F)ccnc2c1`
< 0.1 µM

I'd like to know its IC50. The molecule in question is `Cc1nc(C)c(-c2ccc(F)cc2)c(O)c1C(=O)Nc1ccc(Oc2ccnc3cc(OCc4ccccc4)cnc23)c(F)c1`
< 0.1 µM

I'd like to know its IC50. The molecule in question is `COc1cc2nccc(Oc3ccc(NC(=O)c4c(C)ncc(Br)c4O)cc3F)c2nc1OC`
< 0.1 µM

I'd like to know its IC50. The molecule in question is `Cc1ccc(C(=O)Nc2ccc(Oc3ccnc4cnc(Cl)cc34)c(F)c2)c(=O)n1-c1ccc(F)cc1`
< 0.1 µM

I'd like to know its IC50. The molecule in question is `COc1cc2nccc(Oc3ccc(NC(=O)c4cn(CC(F)(F)F)c(C)c(-c5ccc(F)cc5)c4=O)cc3)c2cc1OC`
> 0.3 µM

I'd like to know its IC50. The molecule in question is `COc1cc2nccc(Oc3ccc(NC(=O)c4c(C)c(F)c(C)n(-c5ccc(F)cc5)c4=O)cc3F)c2nc1OC`
< 0.1 µM

---

biological target: Human MET (residues 956-1390) (Homo sapiens (Human), UniProt P08581); assay: Human Met kinase assay, HTRF KinEase (Example D-2); format: biochemical; details: protocol of Example D-2; read-out: c-Met IC50
Sequence (P08581 956-1390): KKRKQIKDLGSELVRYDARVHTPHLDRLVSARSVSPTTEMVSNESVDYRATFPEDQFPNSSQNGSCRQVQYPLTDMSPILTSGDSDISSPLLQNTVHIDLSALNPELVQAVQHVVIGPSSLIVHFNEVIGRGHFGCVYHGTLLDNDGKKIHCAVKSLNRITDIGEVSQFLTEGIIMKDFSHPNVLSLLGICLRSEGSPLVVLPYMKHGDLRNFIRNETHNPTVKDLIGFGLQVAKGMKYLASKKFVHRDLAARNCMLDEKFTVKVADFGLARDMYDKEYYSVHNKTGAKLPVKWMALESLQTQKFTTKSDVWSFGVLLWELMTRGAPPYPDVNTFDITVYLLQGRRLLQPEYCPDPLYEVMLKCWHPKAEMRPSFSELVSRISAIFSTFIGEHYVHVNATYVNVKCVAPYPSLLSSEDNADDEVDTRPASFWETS
Where a name gives a salt, the structure may show the parent alone.
RESULT TYPE: IC50

{"columns": ["MOLECULE", "IC50"],
 "data": [
  ["COc1nc2c(Oc3ccc(NC(=O)c4cn(C(C)C)cc(-c5ccc(F)cc5)c4=O)cc3F)ccnc2cc1-c1cnn(C(F)F)c1 [Compound 608]", "< 100 nM"]
]}

I'd like to know its IC50. The molecule in question is COc1nc2c(Oc3ccc(NC(=O)c4cn(C(C)C)cc(-c5ccc(F)cc5)c4=O)cc3F)ccnc2cc1-c1cccnc1 [Compound 605, hydrochloride]
< 100 nM

I'd like to know its IC50. The molecule in question is C=C(C)c1cnc2c(Oc3ccc(NC(=O)c4c(C)nc(C)c(-c5ccc(F)cc5)c4O)cc3)ccnc2c1 [Compound 455]
< 100 nM

I'd like to know its IC50. The molecule in question is COc1cc2nccc(Oc3ccc(NC(=O)c4nn(C)c(C)c(-c5ccc(F)cc5C)c4=O)cc3F)c2nc1OC [Compound 512]
< 100 nM

I'd like to know its IC50. The molecule in question is COc1cc2nccc(Oc3ccc(NC(=O)c4cc(C)nn(-c5ccc(F)cc5)c4=O)cc3)c2nc1OC [Compound 520]
< 100 nM

I'd like to know its IC50. The molecule in question is Cc1nc(C)c(-c2ccc(F)cc2)c(O)c1C(=O)Nc1ccc(Oc2ccnc3cc(O)cnc23)c(F)c1 [Compound 554]
< 100 nM

I'd like to know its IC50. The molecule in question is Cc1cc(F)ccc1-c1c(C)ncc(C(=O)Nc2ccc(Oc3ccnc4cc(C(C)C)cnc34)c(F)c2)c1O [Compound 593]
100 to 300 nM

I'd like to know its IC50. The molecule in question is C=C(C)c1cc2nccc(Oc3ccc(NC(=O)c4cnc(C)c(-c5ccc(F)cc5)c4O)cc3F)c2nc1OC [Compound 452]
> 300 nM

I'd like to know its IC50. The molecule in question is COc1cc2ncnc(Oc3ccc(NC(=O)c4cn(C(C)C)cc(-c5ccc(F)cc5)c4=O)cc3F)c2nc1OC [Compound 636]
< 100 nM

I'd like to know its IC50. The molecule in question is Cc1ncc(C(=O)Nc2ccc(Oc3ccnc4cnccc34)c(F)c2)c(O)c1-c1ccc(F)cc1 [Compound 642]
< 100 nM

I'd like to know its IC50. The molecule in question is COc1cnc2c(Oc3ccc(NC(=O)c4nn(C)c(C)c(-c5ccc(F)cc5C)c4=O)cc3F)ccnc2c1 [Compound 513]
< 100 nM

I'd like to know its IC50. The molecule in question is Cc1cc(F)ccc1-c1c(C)nc(C)c(C(=O)Nc2ccc(Oc3ccnc4cccnc34)c(F)c2)c1O [Compound 505]
< 100 nM

I'd like to know its IC50. The molecule in question is CCn1cc(C(=O)Nc2ccc(Oc3ccnc4cc(OC)c(OC)nc34)cc2)c(=O)c(-c2ccc(F)cc2)c1CF [Compound 558]
100 to 300 nM

I'd like to know its IC50. The molecule in question is COc1cc2nccc(Oc3ccc(NC(=O)c4c(C)c(C)nn(-c5ccc(F)cc5)c4=O)cc3F)c2nc1OC [Compound 524]
100 to 300 nM
